Molecular target: 5-hydroxytryptamine receptor 4 (Rattus norvegicus) (UniProt Q62758)
Sequence (Q62758 whole entry): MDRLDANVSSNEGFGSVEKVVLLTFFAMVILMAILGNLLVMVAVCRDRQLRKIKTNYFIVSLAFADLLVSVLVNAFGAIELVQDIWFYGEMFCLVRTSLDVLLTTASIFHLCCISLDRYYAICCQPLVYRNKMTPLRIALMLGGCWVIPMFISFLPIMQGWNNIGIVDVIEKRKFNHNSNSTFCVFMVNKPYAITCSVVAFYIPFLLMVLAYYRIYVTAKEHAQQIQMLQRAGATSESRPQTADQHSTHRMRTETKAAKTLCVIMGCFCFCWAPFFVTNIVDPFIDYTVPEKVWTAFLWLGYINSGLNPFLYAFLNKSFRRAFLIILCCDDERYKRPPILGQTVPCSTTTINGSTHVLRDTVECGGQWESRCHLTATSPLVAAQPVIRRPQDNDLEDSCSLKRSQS
Experiment: Antagonistic activity evaluated by ability to block serotonin induced relaxation (mediated by activation of 5-hydroxytryptamine 4 receptor) in carbamylcholine (10e-6 M) contracted esophagus at a concentration of 10e-5 M.
Type: functional, tissue-based
Parameter: Relaxation. Scope: all listed entries.
attribute_measured: Relaxation (%)

> print(dat)
                                   molecule  unit.text  quantitative.result
1  CN1[C@@H]2CC[C@H]1C[C@@H](OC(=O)c1c[nH]c3ccccc13)C2          %                 26.4
2  CN1[C@@H]2CC[C@H]1C[C@@H](NC(=O)c1cc(Cl)cc3c1OC(C)(C)C3)C2          %                 22.2
3  COc1cc(N)c(Cl)cc1C(=O)NC1CC2CCC(C1)N2C (stereo not drawn)          %                  2.8
4  CN1C2CCCC1CC(NC(=O)c1nn(C)c3ccccc13)C2 (stereo not drawn)          %                   21
5  COc1cc(N)c(Cl)cc1C(=O)NC1CCN(CCCOc2ccc(F)cc2)CC1OC (stereo not drawn)          %                 20.3
6  CN1C2CCC1CC(NC(=O)c1n[nH]c3ccccc13)C2 (stereo not drawn)          %                 50.5
7      CC(C)n1nc(C(=O)NCCN2CCCCC2)c2ccccc21          %                  6.6
8  CN1C2CCC1CC(NC(=O)c1cccc3ccccc13)C2 (stereo not drawn)          %                 76.5

* * *

Target: 5-hydroxytryptamine receptor 4 (Rattus norvegicus) (UniProt Q62758)
Test: Antagonistic activity by ability to block serotonin induced relaxation (mediated by activation of 5-hydroxytryptamine 4 receptor) in carbamylcholine (10e-6 M) contracted esophagus at a concentration of 10e-7 M.
Type: functional, tissue-based
Classify as follows. Reported Relaxation greater than or equal to 20%: fulfilled. Reported Relaxation below: not fulfilled.

> print(dat)
                                    compound  discrete.label
 1  CC(C)n1c(=O)n(C(=O)NC2CCN(C)CC2)c2ccccc21       fulfilled
 2  CCC(=O)NC1CCN(CCNC(=O)c2nn(C(C)C)c3ccccc23)CC1   not fulfilled
 3  CC(C)n1nc(C(=O)NCCN2CCC(Cc3ccccc3)CC2)c2ccccc21       fulfilled
 4  CC(C)n1c(=O)n(C(=O)NC2CCN(CCCOc3ccc(F)cc3)CC2)c2ccccc21       fulfilled
 5  CC(C)n1c(=O)n(C(=O)NC2CC3CCC(C2)N3CCCOc2ccc(F)cc2)c2ccccc21 (stereo not drawn)       fulfilled
 6     CC(C)n1nc(C(=O)NCCCN2CCCCC2)c2ccccc21       fulfilled
 7  CC(C)n1nc(C(=O)NC2CCN(Cc3ccccc3)CC2)c2ccccc21       fulfilled
 8  CC(C)n1nc(C(=O)NCCN2CCC(NC(=O)Nc3ccc(F)cc3)CC2)c2ccccc21       fulfilled
 9  CC(C)n1nc(C(=O)NCCN2CCC(NC(=O)Cc3ccccc3)CC2)c2ccccc21       fulfilled
10  CC(C)n1nc(C(=O)NCCN2CCC(NC(=O)C34C[C@H]5C[C@@H](C3)C[C@@H](C4)C5)CC2)c2ccccc21   not fulfilled
11  CC(C)n1nc(C(=O)NCCN2CCC(NC(=O)C(C)(C)C)CC2)c2ccccc21   not fulfilled
12  CC(C)C(=O)NC1CCN(CCNC(=O)c2nn(C(C)C)c3ccccc23)CC1   not fulfilled
13  CCCC(=O)NC1CCN(CCNC(=O)c2nn(C(C)C)c3ccccc23)CC1       fulfilled
